Tested on: RIVA
measurement-notes: growth inhibition by drug plus 177Lu-lilotomab satetraxetan (1 - RLU/untreated control) (fraction); higher = stronger inhibition
run-conditions: 10 nM; time (day): 5; 177Lu-lilotomab satetraxetan 0.5 ug/ml
Below, each entry is listed with its recorded growth inhibition by drug plus 177Lu-lilotomab satetraxetan.
Write the number on its own, no unit after it.

| molecule | endpoint-result |
| --- | --- |
| CS(=O)(=O)c1ccc(C(=O)Nc2ccc(Cl)c(-c3ccccn3)c2)c(Cl)c1 | 0.682 |
| COCC[n+]1c2c(n(Cc3cnccn3)c1C)C(=O)c1ccccc1C2=O | 0.986 |
| CCOC(=O)C1=C[C@]2(CC)CCCN3CCc4c(n1c1ccccc41)[C@@H]32 | 0.549 |
| Cc1nc(N)sc1-c1ccnc(Nc2ccc(N3CCOCC3)cc2)n1 | 0.505 |
| CC(C)c1onc(-c2c(Cl)cccc2Cl)c1COc1ccc(/C=C/c2cccc(C(=O)O)c2)c(Cl)c1 | 0.562 |

# molecule `CC1(COc2ccc3c(c2)ncn3-c2ccc3cccc(N4CCC(N)CC4)c3n2)COC1` ; its growth inhibition by drug plus 177Lu-lilotomab satetraxetan = 0.633

Documented growth inhibition by drug plus 177Lu-lilotomab satetraxetan of COc1ccccc1OCC(O)CN1CCN(CC(=O)Nc2c(C)cccc2C)CC1 (stereo not drawn) [Ranolazine (Ranexa)] : 0.544

COc1cc(Nc2c(C#N)cnc3cc(OCCCN4CCN(C)CC4)c(OC)cc23)c(Cl)cc1Cl [Bosutinib (SKI-606)] has a reported growth inhibition by drug plus 177Lu-lilotomab satetraxetan of 0.647

====

Test system: RIVA
measurement-notes: growth inhibition by drug alone (1 - RLU/untreated control) (fraction); higher = stronger inhibition
run-conditions: 10 nM; time (day): 5; 177Lu-lilotomab satetraxetan 0 ug/ml
Counter-ions that a name gives are not always drawn.
Tag: y if measured growth inhibition by drug alone is not below -0.05, n if it is.

Recorded results for 6 molecules are shown here.
| molecule | assigned-label |
| --- | --- |
| Nc1ccccc1NC(=O)c1ccc(CNc2nccc(-c3cccnc3)n2)cc1 [Mocetinostat (MGCD0103)] | n |
| COc1cc2ncnc(Nc3ccc(Oc4ccccc4)cc3)c2cc1OC | y |
| CCN(CC)CCCC(C)Nc1nc(C)cc(Nc2ccc3nc(C)cc(N)c3c2)n1 (stereo not given) | n |
| CC(=O)O[C@@]12CO[C@@H]1C[C@H](O)[C@@]1(C)C(=O)[C@H](O)C3=C(C)[C@@H](OC(=O)[C@H](O)[C@@H](NC(=O)OC(C)(C)C)c4ccccc4)C[C@@](O)([C@@H](OC(=O)c4ccccc4)[C@H]21)C3(C)C [Docetaxel (Taxotere)] | y |
| CC(C)C(=O)Nc1ccc([N+](=O)[O-])c(C(F)(F)F)c1 [Flutamide (Eulexin)] | y |
| Cc1ccc([C@@H]2O[C@H](CO)[C@@H](O)[C@H](O)[C@H]2O)cc1Cc1ccc(-c2ccc(F)cc2)s1 [Canagliflozin] | n |

q: Please check the record CO[C@H]1C[C@@H]2CC[C@@H](C)[C@@](O)(O2)C(=O)C(=O)N2CCCC[C@H]2C(=O)O[C@H]([C@H](C)C[C@@H]2CC[C@@H](O)[C@H](OC)C2)CC(=O)[C@H](C)/C=C(\C)[C@@H](O)[C@@H](OC)C(=O)[C@H](C)C[C@H](C)/C=C/C=C/C=C/1C [Rapamycin (Sirolimus)] and state if its growth inhibition by drug alone is at or above -0.05.
a: y

q: Record O=C1CN2Cc3c(ccc(Cl)c3Cl)N=C2N1 [Anagrelide hydrochloride] ; criterion: growth inhibition by drug alone no lower than -0.05. Met?
a: y

====

System: U-2932
measurement-notes: growth inhibition by drug alone (1 - RLU/untreated control) (fraction); higher = stronger inhibition
run-conditions: 1000 nM; time (day): 6; 177Lu-lilotomab satetraxetan 0 ug/ml
# label = satisfied if growth inhibition by drug alone >= -0.07 else not satisfied

# count of solved cases: 3
| compound | target-of-assay | assigned-label |
| --- | --- | --- |
| CC(C)OC(=O)C1=CN(C(=O)c2ccc(F)c(F)c2)CC(C)(C)c2c1[nH]c1ccccc21 | U-2932 | satisfied |
| CC(=O)c1c(C)c2cnc(Nc3ccc(N4CCNCC4)cn3)nc2n(C2CCCC2)c1=O | U-2932 | not satisfied |
| O=c1[nH]nc(Sc2ncc([N+](=O)[O-])s2)n1-c1ccc2c(c1)OCCO2 | U-2932 | not satisfied |

q: Could you please find out whether CC(C)C(=O)Nc1ccc([N+](=O)[O-])c(C(F)(F)F)c1 [Flutamide (Eulexin)] has growth inhibition by drug alone that meets -0.07 or exceeds it?
a: satisfied

q: Assess whether reported growth inhibition by drug alone for `CC(C)C[C@@H](C(=O)N[C@H](C(=O)OC1CCCC1)c1ccccc1)[C@H](O)C(=O)NO` sits at -0.07 or higher.
a: not satisfied

q: Could you verify whether the entry O=C(CCCCCCC(=O)Nc1cccnc1)NO [Pyroxamide] shows growth inhibition by drug alone of no less than -0.07?
a: satisfied

q: Is the recorded value of growth inhibition by drug alone equal to or greater than -0.07 for this compound? `O=C1NC(=O)/C(=C\c2cccc(C(F)(F)F)c2)S1`
a: not satisfied

q: hey, is growth inhibition by drug alone for this one >= -0.07? `Nc1[nH]nc2nnc(-c3c(-c4ccccc4)nn4ccccc34)cc12`
a: satisfied

====

Tested on: U-2932
measurement-notes: growth inhibition by drug plus 177Lu-lilotomab satetraxetan (1 - RLU/untreated control) (fraction); higher = stronger inhibition
run-conditions: 1000 nM; time (day): 4; 177Lu-lilotomab satetraxetan 1 ug/ml
Structures can show the parent of a compound that is named as a salt.
endpoint-label: growth inhibition by drug plus 177Lu-lilotomab satetraxetan
Number only, please.

Below, each entry is followed by its recorded growth inhibition by drug plus 177Lu-lilotomab satetraxetan result.
| compound | endpoint-result |
| --- | --- |
| CC(=O)[C@]1(O)Cc2c(O)c3c(c(O)c2[C@@H](O[C@H]2C[C@H](N)[C@H](O)[C@H](C)O2)C1)C(=O)c1ccccc1C3=O [Idarubicin HCl] | 0.979 |
| O=C(CCCCCCC(=O)Nc1cccnc1)NO [Pyroxamide] | 0.542 |

Entry `Cc1ccc([N+](=O)[O-])cc1S(=O)(=O)N(C)/N=C/c1cnc2ccc(Br)cn12` ; growth inhibition by drug plus 177Lu-lilotomab satetraxetan = 0.975

Briefly, growth inhibition by drug plus 177Lu-lilotomab satetraxetan measured for `O=C(O)c1ccc(-c2c[nH]c3ncc(-c4ccccc4)cc23)cc1C1CCCC1` : 0.173

Lab note: `Nc1ccccc1NC(=O)c1ccc(CNC(=O)OCc2cccnc2)cc1` gave growth inhibition by drug plus 177Lu-lilotomab satetraxetan of 0.89

====

Tested on: RIVA
measurement-notes: growth inhibition by drug plus 177Lu-lilotomab satetraxetan (1 - RLU/untreated control) (fraction); higher = stronger inhibition
run-conditions: 10 nM; time (day): 4; 177Lu-lilotomab satetraxetan 0.5 ug/ml
Structures can show the parent of a compound that is named as a salt.
Measured growth inhibition by drug plus 177Lu-lilotomab satetraxetan accompanies every entry in the list below.
// print number alone

| compound | endpoint-result |
| --- | --- |
| c1ccc(-c2nn3c(c2-c2ccnc4cc(OCCN5CCOCC5)ccc24)CCC3)nc1 | 0.581 |
| C#Cc1cccc(Nc2ncnc3cc(OCCOC)c(OCCOC)cc23)c1 [Erlotinib HCl] | 0.534 |
| O=C(Nc1ccc(OC(F)(F)F)cc1)c1sccc1NCc1ccnc2ccccc12 | 0.568 |
| CC[C@H](Nc1ncnc2[nH]cnc12)c1nc2cccc(F)c2c(=O)n1-c1ccccc1 | 0.448 |
| COc1ccc(S(=O)(=O)Nc2cccnc2Nc2ccc(O)cc2)cc1 | 0.511 |
| C[C@@H]1C[C@H]2[C@@H]3CCC4=CC(=O)C=C[C@]4(C)[C@@]3(F)[C@@H](O)C[C@]2(C)[C@@]1(O)C(=O)CO [Dexamethasone] | 0.467 |
| O=C(CCc1ccc(O)cc1)c1c(O)cc(O)cc1O [Phloretin (Dihydronaringenin)] | 0.555 |
| COc1cc2c(cc1O)CC[C@@H]1[C@@H]2CC[C@]2(C)[C@@H](O)CC[C@@H]12 [2-Methoxyestradiol] | 0.534 |
| C#Cc1cccc(Nc2ncnc3cc(OC)c(OCCCCCCC(=O)NO)cc23)c1 | 0.467 |
| Cn1cncc1[C@@](N)(c1ccc(Cl)cc1)c1ccc2c(c1)c(-c1cccc(Cl)c1)cc(=O)n2C [Tipifarnib (Zarnestra)] | 0.421 |

# growth inhibition by drug plus 177Lu-lilotomab satetraxetan of COC(=O)Nc1nc2cc(C(=O)c3cccs3)ccc2[nH]1 [Nocodazole] = 0.532

// recorded growth inhibition by drug plus 177Lu-lilotomab satetraxetan for `Cc1nn(-c2ccccc2)c(C)c1C=NN1CCN(Cc2ccccc2)CC1` : 0.414

Value of measured growth inhibition by drug plus 177Lu-lilotomab satetraxetan for the entry CC(=O)O[C@@]12CO[C@@H]1C[C@H](O)[C@@]1(C)C(=O)[C@H](O)C3=C(C)[C@@H](OC(=O)[C@H](O)[C@@H](NC(=O)OC(C)(C)C)c4ccccc4)C[C@@](O)([C@@H](OC(=O)c4ccccc4)[C@H]21)C3(C)C [Docetaxel (Taxotere)] : 0.982

Consider CCc1c2c(nc3ccc(OC(=O)N4CCC(N5CCCCC5)CC4)cc13)-c1cc3c(c(=O)n1C2)COC(=O)[C@]3(O)CC [Irinotecan HCl Trihydrate (Campto)] . Its measured growth inhibition by drug plus 177Lu-lilotomab satetraxetan is 0.422

Measured growth inhibition by drug plus 177Lu-lilotomab satetraxetan, CN1CC[C@H](c2c(O)cc(O)c3c(=O)cc(-c4ccccc4Cl)oc23)[C@H](O)C1 [Flavopiridol hydrochloride] : 0.567

Item: COC(=O)c1ccc2c(C(=Nc3ccc(N(C)C(=O)CN4CCN(C)CC4)cc3)c3ccccc3)c(O)[nH]c2c1 [BIBF1120 (Vargatef)] | growth inhibition by drug plus 177Lu-lilotomab satetraxetan: 0.437
